# Assay Notes: Apparent permeability of the compound at pH 7.4 by PAMPA method
# Format: ADME

Input Smiles: CN1CC(c2c[nH]c3cc(-n4ccc(OCc5ccccc5)cc4=O)ccc23)C1
Units Of Measure: ×10⁻⁶ cm/s
Papp: 4.9

###

# Assay Notes: Drug uptake in rat brain at 10 mg/kg, po after 4 hrs
# Type: ADME, organism-based
# Design: dose 10 mg/kg, route oral
# Settings: read-out: Drug uptake
Endpoint: log10(concentration at 4 h) (log10 of the value in ng/g)

Input Smiles: CN1CC(c2c[nH]c3cc(-n4ccc(-c5ccc(Cl)cc5)cc4=O)ccc23)C1
log10(concentration at 4 h): 2.00
//
Input Smiles: COCCN1CC(c2c[nH]c3cc(-n4ccc(OCc5ccccc5)cc4=O)ccc23)C1
log10(concentration at 4 h): 1.69
//
Input Smiles: CN1CC(c2c[nH]c3cc(-n4ccc(OCc5ccccc5)cc4=O)ccc23)C1
log10(concentration at 4 h): 1.04
//
Input Smiles: O=c1cc(-c2ccc(Cl)cc2)ccn1-c1ccc2c(c1)CCN2C1CN(CCF)C1
log10(concentration at 4 h): 3.04
//
Input Smiles: CN1CC(N2CCc3cc(-n4ccc(OCc5ccccc5)cc4=O)ccc32)C1
log10(concentration at 4 h): 2.89
//
Input Smiles: CN1CC(c2c[nH]c3cc(-n4ccc(OCc5ccccc5F)cc4=O)ccc23)C1
log10(concentration at 4 h): 1.34
//
Input Smiles: CN1CC(N2CCc3cc(-n4ccc(-c5ccc(Cl)cc5)cc4=O)ccc32)C1
log10(concentration at 4 h): 2.78
//
Input Smiles: O=c1cc(OCc2ccccc2)ccn1-c1ccc2c(c1)CCN2C1CN(CCF)C1
log10(concentration at 4 h): 2.72
//
Input Smiles: Cn1cc(C2CN(CCF)C2)c2ccc(-n3ccc(-c4ccc(F)cc4)cc3=O)cc21
log10(concentration at 4 h): 2.91
//
Input Smiles: O=c1cc(OCc2ccccc2)ccn1-c1ccc2c(c1)CCN2C1CNC1
log10(concentration at 4 h): 1.43
//
Input Smiles: O=c1cc(OCc2ccccc2)ccn1-c1ccc2c(C3CN(CCF)C3)c[nH]c2c1
log10(concentration at 4 h): 2.11
